Origin of the recorded values: ChEMBL document CHEMBL1152592

Test system: Staphylococcus epidermidis
protocol: Antibacterial activity against Staphylococcus epidermidis 56500 after 18 hrs by twofold microbroth dilution method
Type: functional
measurement-parameters: Staphylococcus epidermidis, 56500, 18 h
reported-property: MIC (µg/mL)
Answer format: numeric, µg/mL implied, no suffix.

// known answers, use as guide
• C[C@H]1NCc2cc(-c3ccc4c(=O)c(C(=O)O)cn(C5CC5)c4c3OC(F)F)ccc21 [GARENOXACIN] = 0.05
• CNC1([C@@H]2CCN(c3c(F)cc4c(=O)c(C(=O)O)cn([C@@H]5C[C@@H]5F)c4c3OC)C2)CC1 = 0.006
• COc1c(N2CC[C@@H](C3(N)CCC3)C2)ccc2c(=O)c(C(=O)O)cn([C@@H]3C[C@@H]3F)c12 = 0.012
• CNC1([C@@H]2CCN(c3ccc4c(=O)c(C(=O)O)cn([C@@H]5C[C@@H]5F)c4c3OC)C2)CC1 = 0.012

Then there is this compound:
Quickly give me recorded MIC for COc1c(N2C[C@@H]3CCCN[C@@H]3C2)c(F)cc2c(=O)c(C(=O)O)cn(C3CC3)c12 [MOXIFLOXACIN]
0.1

----------
protocol: Half life in Crj:CD rat liver at 20 mg/kg, iv
Type: ADME, organism-based
Design: dose 20 mg/kg, route intravenous
reported-property: half-life (h)
Answer format: numeric, h implied, no suffix.

Quickly give me recorded half-life for COc1c(N2CC[C@@H](C3(N)CC3)C2)ccc2c(=O)c(C(=O)O)cn([C@@H]3C[C@@H]3F)c12
1.1

----------
protocol: Cmin in Crj:CD rat kidney at 20 mg/kg, iv after 5 mins
Assay type: ADME, organism-based
Parameters: dose 20 mg/kg, route intravenous
measurement-parameters: read-out: Cmin
reported-property: concentration at 5 min (ng/mL)
Answer format: numeric, ng/mL implied, no suffix.

Quickly give me recorded concentration at 5 min for COc1c(N2CC[C@@H](C3(N)CC3)C2)ccc2c(=O)c(C(=O)O)cn([C@@H]3C[C@@H]3F)c12
47200

----------
protocol: Cmin in Crj:CD rat lung at 20 mg/kg, iv after 5 mins
Type: ADME, organism-based
Design: dose 20 mg/kg, route intravenous
measurement-parameters: read-out: Cmin
reported-property: concentration at 5 min (ng/mL)
Answer format: numeric, ng/mL implied, no suffix.

Quickly give me recorded concentration at 5 min for COc1c(N2CC[C@@H](C3(N)CC3)C2)ccc2c(=O)c(C(=O)O)cn([C@@H]3C[C@@H]3F)c12
32400

----------
System: Staphylococcus aureus
protocol: Antibacterial activity against levofloxacin, methicillin-resistant Staphylococcus aureus after 18 hrs by twofold microbroth dilution method
Type: functional
This listing pairs compounds with measured MIC50.
Answer format: numeric, µg/mL implied, no suffix.

// known answers, use as guide
- COc1c(N2CC[C@@H](C3(N)CC3)C2)ccc2c(=O)c(C(=O)O)cn([C@@H]3C[C@@H]3F)c12: 0.12
- COc1c(N2CC[C@@H]([C@H](C)N)C2)ccc2c(=O)c(C(=O)O)cn(C3CC3)c12: 0.5
- COc1c(N2C[C@@H]3CCCN[C@@H]3C2)c(F)cc2c(=O)c(C(=O)O)cn(C3CC3)c12 [MOXIFLOXACIN]: 4

Then there is this compound:
Quickly give me recorded MIC50 for C[C@H]1NCc2cc(-c3ccc4c(=O)c(C(=O)O)cn(C5CC5)c4c3OC(F)F)ccc21 [GARENOXACIN]
2

----------
protocol: Oral bioavailability in cynomolgus monkey serum at 20 mg/kg
Type: ADME, organism-based, Macaca fascicularis
reported-property: bioavailability (%)
Answer format: numeric, % implied, no suffix.

Quickly give me recorded bioavailability for COc1c(N2CC[C@@H](C3(N)CC3)C2)ccc2c(=O)c(C(=O)O)cn([C@@H]3C[C@@H]3F)c12
58.2

----------
System: Mus musculus
protocol: Toxicity in Slc:ddY mouse at 50 mg/kg, iv
Assay type: organism-based
Design: dose 50 mg/kg, route intravenous
measurement-parameters: in vivo
reported-property: Activity

// known answers, use as guide
- COc1c(N2CC[C@@H]([C@H](C)N)C2)ccc2c(=O)c(C(=O)O)cn(C3CC3)c12: Non-toxic
- COc1c(N2CC[C@@H](C3(N)CCC3)C2)ccc2c(=O)c(C(=O)O)cn([C@@H]3C[C@@H]3F)c12: Non-toxic
- COc1c(N2CC[C@@H]([C@H](C)N)C2)c(F)cc2c(=O)c(C(=O)O)cn(C3CC3)c12: Toxic
- CNC1([C@@H]2CCN(c3c(F)cc4c(=O)c(C(=O)O)cn([C@@H]5C[C@@H]5F)c4c3OC)C2)CC1: Toxic

Then there is this molecule:
Quickly give me recorded Activity for COc1c(N2CC[C@@H](C3(N)CC3)C2)c(F)cc2c(=O)c(C(=O)O)cn([C@@H]3C[C@@H]3F)c12
Toxic

----------
protocol: Ratio of AUC (0 to 6 hrs) kidney to serum in Crj:CD rat […] at 20 mg/kg, iv
Format: ADME, organism-based
Set-up: dose 20 mg/kg, route intravenous
reported-property: Kp
Number only, no unit.

Quickly give me recorded Kp for COc1c(N2CC[C@@H](C3(N)CC3)C2)ccc2c(=O)c(C(=O)O)cn([C@@H]3C[C@@H]3F)c12
4.4
